# Test system: CCRF-CEM
# procedure summary: Cytotoxicity against human CCRF-CEM cells
# Format: functional
# study conditions: read-out: pTGI (converted)
property measured: TGI

The examples below pair each entry with its known result.
COc1cc(/C=C/c2cc(O)c3c(CC=C(C)C)c[nH]c3c2)cc2c1O[C@]1(C)CC[C@@H](O)C(C)(C)[C@H]1C2 :: 50.1 µM
COc1cc(/C=C/c2cc(O)c3c(c2)C[C@@H]2C(C)(C)[C@H](O)CC[C@@]2(C)O3)cc2[nH]cc(CC=C(C)C)c12 :: 14.8 µM

The record that follows has no TGI shown yet.
(Q) Can you share its TGI? I mean this molecule: COc1cc(/C=C/c2cc(O)c3ccn(C)c3c2)cc2c1O[C@]1(C)CC[C@@H](O)C(C)(C)[C@H]1C2
(A) > 100 µM

###

Listed molecules paired with reported LC50
# procedure summary: Cytotoxicity against human Hs578T cells
# Type: functional
# study conditions: Hs-578T

Below: 6 molecules and their reported LC50.
COc1cc(/C=C/c2cc(OC)c3c(C/C=C(\C)CCC=C(C)C)c[nH]c3c2)cc2c1O[C@]1(C)CC[C@@H](O)C(C)(C)[C@H]1C2 :: > 100 µM
COc1cc(/C=C/c2cc(O)c3c(CC=C(C)C)c[nH]c3c2)cc2c1O[C@]1(C)CC[C@@H](O)C(C)(C)[C@H]1C2 :: 50.1 µM
COc1cc(/C=C/c2cc(O)c3cc[nH]c3c2)cc2c1O[C@]1(C)CC[C@@H](O)C(C)(C)[C@H]1C2 :: > 100 µM
COc1cc(/C=C/c2cc(O)c3ccn(C)c3c2)cc2c1O[C@]1(C)CC[C@@H](O)C(C)(C)[C@H]1C2 :: > 100 µM
COc1cc(/C=C/c2cc(O)c3c(c2)C[C@@H]2C(C)(C)[C@H](O)CC[C@@]2(C)O3)cc2c1ccn2C :: 89.1 µM
CC1(C)[C@H](O)CC[C@@]2(C)Oc3c(O)cc(/C=C/c4cc(O)c5cc[nH]c5c4)cc3C[C@H]12 :: > 100 µM

# ---- query molecule ----
(Q) Would you kindly share the measured LC50 for COc1cc(/C=C/c2cc(OC)c3c(CC=C(C)C)c[nH]c3c2)cc2c1O[C@]1(C)CC[C@@H](O)C(C)(C)[C@H]1C2 ?
(A) > 100 µM

###

# Tested on: SNB-75
# procedure summary: Cytotoxicity against human SNB75 cells
# Type: functional
# study conditions: read-out: pLC50 (the source's name) (converted)
property measured: CC50 (µM)
All answers are understood in µM, so give the number only.

COc1cc(/C=C/c2cc(O)c3c(c2)C[C@@H]2C(C)(C)[C@H](O)CC[C@@]2(C)O3)cc2[nH]cc(CC=C(C)C)c12 :: 64.6
COc1cc(/C=C/c2cc(OC)c3c(C/C=C(\C)CCC=C(C)C)c[nH]c3c2)cc2c1O[C@]1(C)CC[C@@H](O)C(C)(C)[C@H]1C2 :: 40.7

(Q) Dear colleague, I am looking for the recorded CC50 of the following molecule: CC1(C)[C@H](O)CC[C@@]2(C)Oc3c(O)cc(/C=C/c4cc(O)c5cc[nH]c5c4)cc3C[C@H]12
(A) 56.2

###

# Tested on: MCF7
# procedure summary: Cytotoxicity against human MCF7 cells
# Format: functional
Reported GI50 is given for each of the following compounds.
Give just the number in µM; leave the unit off.

COc1cc(/C=C/c2cc(O)c3c(c2)C[C@@H]2C(C)(C)[C@H](O)CC[C@@]2(C)O3)cc2[nH]cc(CC=C(C)C)c12 :: 0.537
COc1cc(/C=C/c2cc(O)c3cc[nH]c3c2)cc2c1O[C@]1(C)CC[C@@H](O)C(C)(C)[C@H]1C2 :: 1.29
COc1cc(/C=C/c2cc(OC)c3c(CC=C(C)C)c[nH]c3c2)cc2c1O[C@]1(C)CC[C@@H](O)C(C)(C)[C@H]1C2 :: 0.398
COc1cc(/C=C/c2cc(OC)c3ccn(C)c3c2)cc2c1O[C@]1(C)CC[C@@H](O)C(C)(C)[C@H]1C2 :: 1.51

(Q) Bench note: what GI50 did COc1cc(/C=C/c2cc(O)c3c(C/C=C(\C)CCC=C(C)C)c[nH]c3c2)cc2c1O[C@]1(C)CC[C@@H](O)C(C)(C)[C@H]1C2 show?
(A) 0.617

(Q) I'd like to know its GI50. The compound in question is COc1cc(/C=C/c2cc(OC)c3c(C/C=C(\C)CCC=C(C)C)c[nH]c3c2)cc2c1O[C@]1(C)CC[C@@H](O)C(C)(C)[C@H]1C2
(A) 1.02

(Q) Dear colleague, I am looking for the recorded GI50 of the following compound: COc1cc(/C=C/c2cc(O)c3ccn(C)c3c2)cc2c1O[C@]1(C)CC[C@@H](O)C(C)(C)[C@H]1C2
(A) 0.741
